testedSystem: T1, human CD70 on CD70 positive cell lines (human, UniProt P32970 1-193)
T1 sequence (looked up): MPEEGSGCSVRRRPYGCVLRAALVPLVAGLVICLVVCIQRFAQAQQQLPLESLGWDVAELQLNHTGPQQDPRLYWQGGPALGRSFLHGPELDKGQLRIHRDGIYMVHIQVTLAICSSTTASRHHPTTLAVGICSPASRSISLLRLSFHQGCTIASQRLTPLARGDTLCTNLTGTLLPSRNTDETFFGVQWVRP
assayProtocol: cell-based or functional assay
experimentalReadout: cytotoxicity IC50, Caki-1 cells (ng/mL)
# unit: ng/mL | format: bare number

Query :: Give me measured cytotoxicity IC50, Caki-1 cells, please, for this binder: h1F6 HELA-F8 (humanized 1F6 derivative HELA, hVHE and hVLA, conjugated to vcMMAF, eight drug units per antibody) (antibody, human IgG1, kappa, V domains shown, vcMMAF conjugated, loading level of eight drug units per antibody; attachment residues not stated) VH: QVQLVQSGAEVKKPGASVKVSCKASGYTFTNYGMNWVRQAPGQGLEWMGWINTYTGEPTYADAFKGRVTMTRDTSISTAYMELSRLRSDDTAVYYCARDYGDYGMDYWGQGTTVTVSS VL: DIVMTQSPDSLAVSLGERATINCRASKSVSTSGYSFMHWYQQKPGQPPKLLIYLASNLESGVPDRFSGSGSGTDFTLTISSLQAEDVAVYYCQHSREVPWTFGQGTKVEIKR
Result :: 3.4
